- TARGET UNDER TEST: IDO1 (Homo sapiens, UniProt P14902)
- Construct: HeLa cells were treated with a test compound in the presence of IFNγ, which induces IDO1 expression; host or cells: H1-HeLa cells, IDO1 induced with IFNγ
- Sequence (P14902 whole entry): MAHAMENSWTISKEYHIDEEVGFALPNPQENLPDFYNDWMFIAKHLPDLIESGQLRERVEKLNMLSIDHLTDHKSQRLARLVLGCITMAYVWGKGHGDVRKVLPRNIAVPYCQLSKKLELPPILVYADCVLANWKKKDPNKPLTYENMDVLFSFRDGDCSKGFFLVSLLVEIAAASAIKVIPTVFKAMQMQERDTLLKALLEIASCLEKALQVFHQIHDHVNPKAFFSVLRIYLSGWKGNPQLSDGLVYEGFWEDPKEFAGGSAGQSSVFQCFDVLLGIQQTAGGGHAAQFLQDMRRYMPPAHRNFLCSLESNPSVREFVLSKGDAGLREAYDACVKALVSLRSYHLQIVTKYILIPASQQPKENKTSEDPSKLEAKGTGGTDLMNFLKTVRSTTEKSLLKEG
- ASSAY NAME: Cell-based (HeLa) assay for measurement of IDO1 inhibition (kynurenine levels in supernatant after IFNγ induction)
- COND: HeLa cells, IFNγ-induced IDO1, kynurenine in supernatant, 48 hour incubation; geometric mean of a minimum of four determinations
ATTRIBUTE MEASURED: EC50 (nM)

Use the examples below as a reference point.
What value of EC50 has been recorded for this entry: CN(CCc1nc2nccc(/C(=N/O)Nc3ccc(F)c(Cl)c3)c2[nH]1)CC(C)(C)C [Example 392]
1230

// returns reported EC50 for input CN1CCOCC1CNc1nc2c(F)c(F)cc(/C(=N/O)Nc3ccc(F)c(Cl)c3)c2[nH]1 (stereo not drawn) [Example 429]
1350

Could you tell me which EC50 is on file for CN1[C@@H]2CCC(Nc3nc4c(F)c(F)cc(/C(=N/O)Nc5ccc(F)c(Cl)c5)c4[nH]3)[C@H]1CC2 (stereo partly drawn) [Example 469] ?
959

Quick check: EC50 of CC(=O)NCCNc1nc2c(F)c(F)cc(/C(=N/O)Nc3ccc(F)c(Cl)c3)c2[nH]1 [Example 334] ?
6120

A. CC1(C)CNC1CNc1nc2c(F)c(F)cc(/C(=N/O)Nc3ccc(F)c(Cl)c3)c2[nH]1 (stereo not drawn) [Example 472]
B. CN(C)C1(CNc2nc3c(F)c(F)cc(/C(=N/O)Nc4ccc(F)c(Cl)c4)c3[nH]2)CCCC1 [Example 438]
Lower EC50: A or B ? Answer by stating the label of the chosen item.
B
(B: 838 nM, A: 2450 nM)

I. CN(C)CCNc1nc2cc(F)cc(/C(=N/O)Nc3ccc(F)c(Cl)c3)c2[nH]1 [Example 379]
II. CN(C)[C@@H]1CCC[C@H]1Nc1nc2c(F)c(F)cc(/C(=N/O)Nc3ccc(F)c(Cl)c3)c2[nH]1 [Example 486]
Quick one: lower EC50, I or II ? Choose, then provide that item's label.
II
(II: 284 nM, I: 435 nM)

Data provenance is patent US9951065B2.
